Reference source: paper PMC4336329

# tested.system: human ether-à-go-go-related gene (hERG) potassium channel (human, UniProt Q12809);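 further: peak tail current of the secondary pulse compared with the same well before compound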
# Sequence (Q12809 whole entry, looked up): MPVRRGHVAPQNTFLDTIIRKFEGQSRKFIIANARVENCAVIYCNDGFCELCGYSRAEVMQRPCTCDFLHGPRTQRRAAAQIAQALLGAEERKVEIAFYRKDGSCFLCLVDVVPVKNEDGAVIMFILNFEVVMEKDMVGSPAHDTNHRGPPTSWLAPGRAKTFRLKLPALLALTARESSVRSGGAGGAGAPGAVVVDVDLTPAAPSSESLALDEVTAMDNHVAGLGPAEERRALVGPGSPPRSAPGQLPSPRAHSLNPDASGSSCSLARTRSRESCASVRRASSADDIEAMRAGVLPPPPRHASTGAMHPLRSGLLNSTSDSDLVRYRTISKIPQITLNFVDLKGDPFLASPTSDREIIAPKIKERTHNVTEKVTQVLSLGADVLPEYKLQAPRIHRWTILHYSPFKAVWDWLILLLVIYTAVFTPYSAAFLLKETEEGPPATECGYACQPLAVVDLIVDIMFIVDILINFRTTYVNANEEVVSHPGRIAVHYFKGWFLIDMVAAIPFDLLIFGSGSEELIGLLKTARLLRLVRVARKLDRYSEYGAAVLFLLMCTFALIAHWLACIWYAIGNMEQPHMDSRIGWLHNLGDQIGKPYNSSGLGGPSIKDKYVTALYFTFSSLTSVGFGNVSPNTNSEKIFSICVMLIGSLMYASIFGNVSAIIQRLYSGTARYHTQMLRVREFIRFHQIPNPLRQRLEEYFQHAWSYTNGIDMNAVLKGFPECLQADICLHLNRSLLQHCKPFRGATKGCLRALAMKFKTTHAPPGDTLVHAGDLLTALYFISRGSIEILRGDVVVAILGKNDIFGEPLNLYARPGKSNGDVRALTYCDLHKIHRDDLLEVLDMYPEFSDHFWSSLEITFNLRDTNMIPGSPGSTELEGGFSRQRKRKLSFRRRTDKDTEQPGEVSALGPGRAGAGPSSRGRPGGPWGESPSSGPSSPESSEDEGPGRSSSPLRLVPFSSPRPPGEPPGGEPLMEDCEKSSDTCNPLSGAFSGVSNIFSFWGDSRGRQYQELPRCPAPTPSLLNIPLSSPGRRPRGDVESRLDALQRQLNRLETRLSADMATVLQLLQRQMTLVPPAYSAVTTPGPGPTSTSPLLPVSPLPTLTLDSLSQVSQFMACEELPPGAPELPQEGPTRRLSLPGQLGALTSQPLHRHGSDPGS
# protocol.summary: primary screen, population patch clamp on CHO cells stably expressing hERG; higher = less effect of the substance
Screen size: about 310,000 compounds; about 14,000 (4.5%) showed an effect of 50% or more. Effects have a minus sign here. The sample as a whole holds a higher share of strong results than the screen did.
test.readout: hERG current change (%, negative = inhibition) at 10uM (%)
Supply the numeric figure in %, leaving out any unit text.

See these solved cases before continuing.
- compound: "CN1CCN(C(=O)c2cc([N+](=O)[O-])cc([N+](=O)[O-])c2)CC1"
  value.measured: 16.7
- compound: "COc1cccc(CNC(=O)CCNS(=O)(=O)c2ccc(Br)s2)c1"
  value.measured: -10.2
- compound: "COc1ccc(-c2[nH]ncc2CN2CCCN(C(=O)c3ccco3)CC2)cc1F"
  value.measured: -55.2
- compound: "O=C(c1ccc(Oc2ccc([N+](=O)[O-])cc2)cc1)N1CCCCCC1"
  value.measured: -25.5
- compound: "O=C(CN(C1CCCCC1)S(=O)(=O)c1ccc(Br)cc1)NCc1ccncc1"
  value.measured: -72.9
- compound: "C/C(=N\\NC(=O)c1nnn(-c2nonc2N)c1CN1CCCCCC1)c1ccc(Br)cc1"
  value.measured: 24.6

q: Reported hERG current change (%, negative = inhibition) at 10uM for O=C(c1ccco1)N1CCCN(Cc2cn[nH]c2-c2ccc(-c3ccccc3)cc2)CC1 : what is it?
a: -59.3

q: Reported hERG current change (%, negative = inhibition) at 10uM for CCOC(=O)N1CCN(C(=O)c2ccc(OCC)cc2)CC1 : what is it?
a: -28.3

q: Reported hERG current change (%, negative = inhibition) at 10uM for Cn1c(CCN2CCOCC2)nc2cc(NS(=O)(=O)c3ccccc3)ccc21 : what is it?
a: -1.84

q: Reported hERG current change (%, negative = inhibition) at 10uM for Cc1ccc(CNC(=O)CCC(=O)Nc2nnc(C3CCCCC3)s2)cc1 : what is it?
a: 17.6

q: Reported hERG current change (%, negative = inhibition) at 10uM for COCCCNC(=O)c1ccc(CS(=O)(=O)c2ccccc2C)o1 : what is it?
a: 7.74

----------
# tested.system: human ether-à-go-go-related gene (hERG) potassium channel (human);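 further: peak tail current of the secondary pulse compared with the same well before compound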
# protocol.summary: primary screen, population patch clamp on CHO cells stably expressing hERG; higher = less effect of the substance
Hit rate of the full screen: of about 310,000 compounds, about 14,000 (4.5%) showed an effect of 50% or more. The effect is printed as a negative number. The entries come from a sample that favours strong results as a whole.
If the reported hERG current change (%, negative = inhibition) at 10uM equals or exceeds -10%, assign y. If not, assign n.

q: Identify whether the reported hERG current change (%, negative = inhibition) at 10uM of the following compound is -10% or greater: O=C(Cc1ccc(Cl)cc1)NCCc1c[nH]c2ccccc12
a: n

q: Identify whether the reported hERG current change (%, negative = inhibition) at 10uM of the following compound is -10% or greater: COc1ccc(C(c2nnnn2CCc2ccccc2)N2CCN(C3CCCC3)CC2)cc1.Cl (stereo not shown)
a: n

q: Identify whether the reported hERG current change (%, negative = inhibition) at 10uM of the following compound is -10% or greater: CC(C)c1nc(=S)n(-c2ccccc2)[nH]1
a: y

q: Identify whether the reported hERG current change (%, negative = inhibition) at 10uM of the following compound is -10% or greater: COC(=O)C1=C(CCc2ccccc2)NC(=O)NC1c1ccc(Cl)cc1 (stereo not shown)
a: y

q: Identify whether the reported hERG current change (%, negative = inhibition) at 10uM of the following compound is -10% or greater: O=C(/C=C/c1ccccc1Cl)N(Cc1ccc(Cl)cc1)C1CCS(=O)(=O)C1 (stereo not shown)
a: y
